- targetOrTestSystem: T1, APC9319-AA
- T1 chain: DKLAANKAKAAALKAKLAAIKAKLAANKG
- testMethodNotes: two-hybrid library CCmax;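 further: natural log of median RNA to DNA barcode read ratio; higher means stronger binding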
- assayContext: mean of both orientations
parameter: interaction score
Answers are plain numbers.

1) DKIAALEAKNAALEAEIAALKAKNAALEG [4H2447-AA]: -1.75

Consider the following items and state reported interaction score for each.
1. DKLAAEKAELAAIEAKLAANKAKLAANKG [APC7099-AA]
2. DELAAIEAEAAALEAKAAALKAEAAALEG [APC232-AA]
3. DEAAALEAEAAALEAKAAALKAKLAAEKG [APC2237-AA]

-2.06
-1.47
-2.27

Consider the following items and state reported interaction score for each.
1. DKLAANKAELAAIEAKLAANKAELAAEEG [APC9096-AA]
2. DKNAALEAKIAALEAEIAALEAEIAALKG [4H3330-AA]
3. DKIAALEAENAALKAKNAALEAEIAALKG [4H2290-AA]

1: -1.81; 2: 0.302; 3: -1.68
